Target: triosephosphate isomerase (TPI) (Saccharomyces cerevisiae, UniProt P00942)
Sequence (P00942 2-248): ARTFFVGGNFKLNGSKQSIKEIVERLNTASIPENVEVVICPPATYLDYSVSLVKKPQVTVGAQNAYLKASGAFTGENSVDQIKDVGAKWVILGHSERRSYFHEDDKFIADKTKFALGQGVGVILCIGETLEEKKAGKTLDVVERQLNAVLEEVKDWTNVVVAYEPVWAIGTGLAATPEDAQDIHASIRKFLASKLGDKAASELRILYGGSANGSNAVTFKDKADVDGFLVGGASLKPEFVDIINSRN
pIC50: −log10 of the molar value.
readout-name: pIC50

Field pIC50 (triosephosphate isomerase (TPI) (Saccharomyces cerevisiae, UniProt P00942)), entry N#Cc1c[nH]cc1-c1cccc2c1OC(F)(F)O2 : ~3.39
